Molecular target: human L-type amino acid transporter 1 (LAT1; S2-hLAT1 cells) (Homo sapiens)
Construct: expressed in transfected cells; host or cells: S2 cells (S2-hLAT1 / S2-LAT1); mammalian cell line described in Morimoto et al., J Pharmacol Sci 2008, 108, 505-516
Sequence (Q01650 whole entry): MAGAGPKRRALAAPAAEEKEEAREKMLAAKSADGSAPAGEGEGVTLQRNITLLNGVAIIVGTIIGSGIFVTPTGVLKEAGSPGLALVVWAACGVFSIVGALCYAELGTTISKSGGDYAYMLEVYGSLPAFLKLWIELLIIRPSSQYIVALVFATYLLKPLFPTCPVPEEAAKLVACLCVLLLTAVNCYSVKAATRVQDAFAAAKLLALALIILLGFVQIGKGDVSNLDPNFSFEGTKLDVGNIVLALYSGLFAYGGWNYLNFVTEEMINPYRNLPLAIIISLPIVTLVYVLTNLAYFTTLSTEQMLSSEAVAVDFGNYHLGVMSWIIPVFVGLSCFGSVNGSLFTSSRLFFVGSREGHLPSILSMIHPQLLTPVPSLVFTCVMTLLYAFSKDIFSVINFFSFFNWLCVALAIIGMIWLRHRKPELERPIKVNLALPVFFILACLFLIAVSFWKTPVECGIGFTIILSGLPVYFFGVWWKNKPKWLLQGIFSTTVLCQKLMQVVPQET
Sequence (P08195 102-630 partner): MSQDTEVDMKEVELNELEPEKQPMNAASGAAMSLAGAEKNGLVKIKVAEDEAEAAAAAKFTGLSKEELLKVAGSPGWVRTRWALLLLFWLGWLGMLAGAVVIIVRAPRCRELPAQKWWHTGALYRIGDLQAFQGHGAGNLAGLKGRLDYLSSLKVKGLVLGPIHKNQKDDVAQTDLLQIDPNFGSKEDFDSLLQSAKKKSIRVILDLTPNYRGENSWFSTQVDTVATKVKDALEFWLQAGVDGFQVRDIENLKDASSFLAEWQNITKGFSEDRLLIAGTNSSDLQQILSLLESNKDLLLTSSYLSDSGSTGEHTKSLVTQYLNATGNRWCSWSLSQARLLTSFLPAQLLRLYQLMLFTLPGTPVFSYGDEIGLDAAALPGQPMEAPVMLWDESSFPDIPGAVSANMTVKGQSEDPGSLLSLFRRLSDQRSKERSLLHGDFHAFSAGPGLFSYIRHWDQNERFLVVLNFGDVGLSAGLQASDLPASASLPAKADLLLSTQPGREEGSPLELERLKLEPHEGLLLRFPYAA
Assay: Inhibition of L-[14C]leucine uptake in S2-LAT1 cells
Type: cell-based
Settings: inhibition of 1.0 μM L-[14C]leucine uptake, 1.0 min, 37° C., NI = no inhibition at 100 μM
Observed property: IC50

These solved cases illustrate the format of a correct answer.
Compound: COc1ccc(COc2c(Cl)cc(CC(C)(N)C(=O)O)cc2Cl)cc1OC (racemic) [compound 150]
IC50: > 100 µM
--
Compound: COc1cc(COc2c(Cl)cc(CC(C)(N)C(=O)O)cc2Cl)cc(OC)c1OC (racemic) [compound 151]
IC50: > 100 µM

Here's the next entry for you.
Fill in the recorded IC50 for this compound, with human L-type amino acid transporter 1 (LAT1; S2-hLAT1 cells) (Homo sapiens) as test system: N[C@@H](Cc1cc(Br)c(OCCc2ccccc2C(F)(F)F)c(Br)c1)C(=O)O [compound 60]
> 100 µM

Cited source for all entries: patent US20110150767A1
